# System: LOC_OS02G45750-cb003
# Assay procedure: thermal shift delta Tm vs DMSO control; higher = stronger stabilization (binding);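 note: purified Escherichia coli-expressed rice kinase domain construct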
# Measurement conditions: 12.5 µM; protein concentration 2 µM
For each of the compounds below, state its thermal shift delta Tm.
One number for each entry, in °C.

- Compound: "CNS(=O)(=O)Nc1nccc(Cc2c(C)c3ccc(Oc4ncccn4)cc3oc2=O)c1F"
  Units label: "°C"
  thermal shift delta Tm: 0.52
- Compound: "NC1(c2ccc(-c3nc4ccn5c(=O)[nH]nc5c4cc3-c3ccccc3)cc2)CCC1"
  Units label: "°C"
  thermal shift delta Tm: -0.2
- Compound: "C=CC(=O)Nc1cc(Nc2nccc(-c3cn(C)c4ccccc34)n2)c(OC)cc1N(C)CCN(C)C"
  Units label: "°C"
  thermal shift delta Tm: 1.63
- Compound: "Nc1ccc(-c2ccc3ncc4ccc(=O)n(-c5cccc(C(F)(F)F)c5)c4c3c2)cn1"
  Units label: "°C"
  thermal shift delta Tm: 2.36
- Compound: "N#C/C(=C\\c1ccc(O)c(O)c1)C(=O)NCc1ccccc1"
  Units label: "°C"
  thermal shift delta Tm: 0.05

Look up thermal shift delta Tm for the entries below, preserving their order.
1. Cc1ccccc1CN1C2=NCCN2C(=O)C2=C1CCN(Cc1ccccc1)C2
2. O=C(/C=C/c1ccc(O)c(O)c1)c1ccc(O)cc1O
3. COc1ccc(CCNCc2ccc(OCc3ccc(Cl)nc3)c(OC)c2)cc1OC
4. Cc1cc(Nc2cc(Cl)nc(Oc3ccc([N+](=O)[O-])cc3)n2)n[nH]1
5. COc1cc2ncnc(Nc3ccc(Oc4ccccc4)cc3C)c2cc1OC
6. O=C(O[C@@H]1Cc2c(O)cc(O)cc2O[C@@H]1c1cc(O)c(O)c(O)c1)c1cc(O)c(O)c(O)c1 [(-)-Epigallocatechin Gallate]

Response line:
1: -0.1; 2: 2.94; 3: -0.45; 4: 1.3; 5: 1.39; 6: -1.81

Look up thermal shift delta Tm for the entries below, preserving their order.
1. O=C(Nc1c[nH]nc1-c1nc2ccc(CN3CCOCC3)cc2[nH]1)NC1CC1
2. COc1ccc(S(=O)(=O)N(C(C)=O)c2ccccc2/C=C/c2cc[n+]([O-])cc2)cc1
3. CC(C)n1nc(-c2ccc3oc(N)nc3c2)c2c(N)ncnc21
4. CC(C)(C)c1cnc(CSc2cnc(NC(=O)C3CCNCC3)s2)o1

Response line:
[8.3, -0.35, 6.62, 0.84]

---

# Test system: LOC_OS04G35114-cb001
# Assay procedure: thermal shift delta Tm vs DMSO control; higher = stronger stabilization (binding)
# Measurement conditions: 12.5 µM; protein concentration 2 µM
Where a name gives a salt, the structure may show the parent alone.
Parameter: thermal shift delta Tm (°C)
Give bare numbers, in °C.

- Compound: "CC(C)c1ccc2oc3nc(N)c(C(=O)O)cc3c(=O)c2c1"
  Units label: "°C"
  thermal shift delta Tm: 2.71
- Compound: "O=C1NC(=O)/C(=C/c2ccc3nccc(-c4ccncc4)c3c2)S1"
  Units label: "°C"
  thermal shift delta Tm: 7.2
- Compound: "C[C@@H]1COCCN1c1cc(C2([S@](C)(=N)=O)CC2)nc(-c2cc[nH]c3nccc2-3)n1"
  Units label: "°C"
  thermal shift delta Tm: 2.45

Look up thermal shift delta Tm for the entries below, preserving their order.
1. O=C(NOCCO)c1ccc2cncn2c1Nc1ccc(I)cc1F
2. NC1(c2ccc(-c3nc4ccn5c(=O)[nH]nc5c4cc3-c3ccccc3)cc2)CCC1
3. CC#CC(=O)Nc1ccc2ncnc(Nc3cccc(Br)c3)c2c1
4. Nc1nc(Nc2ccc(S(N)(=O)=O)cc2)nn1C(=O)c1c(F)cccc1F
5. CCS(=O)(=O)c1cccc(-c2cc(C(=O)NC3CCN(C)CC3)c(C)c3[nH]c4ncc(C)cc4c23)c1
6. COc1cc2c3cc1Oc1c(OC)c(OC)cc4c1[C@@H](Cc1ccc(O)c(c1)Oc1ccc(cc1)C[C@@H]3N(C)CC2)N(C)CC4 [Berbamine (dihydrochloride)]

Response line:
-0.73
0.61
3.68
4.58
6.23
0.22
